EXPERIMENT SUMMARY: Circular dichroism (CD) analysis of alpha-helicity
Format: physicochemical
MEASUREMENT CONTEXT: CD buffer with 50% TFE, 222 nm, 4° C.
Where a SMILES comes first, the peptide text is derived from it. Bridges are numbered along the chain shown (N, C = ends). [ ]: non-standard residue; d: D form. R8 = C=CCCCCCC[C@@](C)(N)C(=O)O; S5 = C=CCCC[C@](C)(N)C(=O)O; Nle = CCCC[C@H](N)C(=O)O
OBSERVABLE: Molar Ellipticity 50% TFE (222 in 50% TFE) (deg cm2 dmol-1)
Just the number in deg cm2 dmol-1, nothing appended.

Note down Molar Ellipticity 50% TFE (222 in 50% TFE) recorded for CCCC[C@H](NC(=O)[C@H](CCC(N)=O)NC(=O)[C@H](CCC(N)=O)NC(=O)[C@]1(C)CCCC=CCCCCCC[C@@](C)(NC(=O)[C@H](Cc2ccccc2)NC(C)=O)C(=O)N[C@@H](C)C(=O)N[C@@H](Cc2ccc(O)cc2)C(=O)N[C@@H](Cc2c[nH]c3ccccc23)C(=O)N[C@@H]([C@@H](C)O)C(=O)N[C@@H](C)C(=O)N[C@@H](CC(C)C)C(=O)N1)C(=O)N[C@@H](C(N)=O)C(C)C [compound 41] (Ac-F[R8]AYWTAL[S5]QQ[Nle][dV]-NH2; staple 2-9)
−21319.4

====

TARGET: MDM2 (Homo sapiens, UniProt Q00987)
Sequence (Q00987 1-125): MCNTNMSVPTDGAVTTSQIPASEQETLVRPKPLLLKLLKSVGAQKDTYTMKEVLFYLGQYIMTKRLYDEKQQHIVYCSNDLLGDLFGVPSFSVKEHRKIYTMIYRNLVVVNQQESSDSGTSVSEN
EXPERIMENT SUMMARY: Competitive fluorescence polarization assay for MDM2
Type: binding
MEASUREMENT CONTEXT: competitive FP assay, MDM2; read-out: Ki (MDM2)
pKi: −log10 of the molar value. Where a SMILES comes first, the peptide text is derived from it. Bridges are numbered along the chain shown (N, C = ends). [ ]: non-standard residue; d: D form. R8 = C=CCCCCCC[C@@](C)(N)C(=O)O; S5 = C=CCCC[C@](C)(N)C(=O)O; Nle = CCCC[C@H](N)C(=O)O; Aib = CC(C)(N)C(=O)O
OBSERVABLE: pKi

Known results for molecules:
CC(=O)N[C@@H](C)C(=O)N[C@@H](CC(C)C)C(=O)N[C@H](C(=O)N[C@@H](Cc1ccccc1)C(=O)N[C@]1(C)CCCCCCC=CCCC[C@@](C)(C(=O)N[C@@H](CO)C(=O)N[C@@H](C)C(=O)N[C@@H](C)C(=O)N[C@H](C)C(N)=O)NC(=O)[C@H](CC2CCC2)NC(=O)[C@H](CCC(N)=O)NC(=O)[C@H](C)NC(=O)[C@H](Cc2c[nH]c3ccccc23)NC(=O)[C@H](Cc2ccc(O)cc2)NC(=O)[C@H](CCC(=O)O)NC1=O)[C@@H](C)O (single isomer, unassigned)	> 8.00
CCCC[C@H](NC(=O)[C@H](C)NC(=O)[C@H](C)NC(=O)[C@]1(C)CCCC=CCCCCCC[C@@](C)(NC(=O)[C@H](Cc2ccccc2)NC(=O)[C@H](C)NC(=O)[C@H](CC(C)C)NC(C)=O)C(=O)N[C@@H](CCC(=O)O)C(=O)N[C@@H](Cc2ccc(O)cc2)C(=O)N[C@@H](Cc2c[nH]c3ccccc23)C(=O)N[C@@H](C)C(=O)N[C@@H](CCC(N)=O)C(=O)N[C@@H](CC(C)C)C(=O)N1)C(=O)N[C@@H](C)C(N)=O [compound 369] (Ac-LAF[R8]EYWAQL[S5]AA[Nle]A-NH2; staple 4-11)	7.00 to 8.00
CC(=O)N[C@@H](CC(C)C)C(=O)N[C@H](C(=O)N[C@@H](Cc1ccccc1)C(=O)N[C@]1(C)CCCCCCC=CCCC[C@@](C)(C(=O)N[C@@H](C)C(=O)N[C@@H](C)C(=O)N[C@@H](C)C(=O)N[C@@H](C)C(=O)N[C@@H](C)C(=O)N[C@H](C)C(N)=O)NC(=O)[C@H](CC(C)C)NC(=O)C(C)(C)NC(=O)[C@H](C)NC(=O)[C@H](Cc2c[nH]c3ccccc23)NC(=O)[C@H](Cc2ccc(O)cc2)NC(=O)[C@H](CCC(=O)O)NC1=O)[C@@H](C)O [compound 609] (Ac-LTF[R8]EYWA[Aib]L[S5]AAAAA[dA]-NH2; staple 4-11)	> 8.00

Shifting focus to the molecule that follows.
Note down pKi recorded for CC(=O)N[C@@H](CCC(=O)O)C(=O)N[C@H](C(=O)N[C@@H](Cc1ccccc1)C(=O)N[C@]1(C)CCCCCCC=CCCC[C@@](C)(C(=O)N[C@@H](CO)C(=O)N[C@@H](C)C(=O)N[C@@H](C)C(N)=O)NC(=O)[C@H](CC(C)C)NC(=O)[C@H](CCC(N)=O)NC(=O)[C@H](C)NC(=O)[C@H](Cc2c[nH]c3ccccc23)NC(=O)[C@H](Cc2ccc(O)cc2)NC(=O)[C@H](CCC(=O)O)NC1=O)[C@@H](C)O [compound 161] (Ac-ETF[R8]EYWAQL[S5]SAA-NH2; staple 4-11)
> 8.00
